Value source: patent US20070105779A1

target: HLA-A2 (Homo sapiens, UniProt P04439, D140Y/D185E/D98H/E176V/E277Q/G131W/G231S/I119V/I121R/I166T/I218V/L300P/L318F/N151K/N90K/P208A/P217A/Q86G/Q94H/R138H/R169H/T345S); construct: using T2 cells, because these express HLA-A2; endogenous in cells; host or cells: T2 cells; experiment: functional competition assay for peptide binding to HLA-A2 (inhibition of tyrosinase 368-376 recognition by CTL clone LAU 156/34 on T2 cells); format: cell-based; settings: competitor peptide concentration for 50% inhibition of target cell lysis
No end group written: not given here.
Criterion: IC50 strictly less than 100 nM. Met: TRUE. Not met: FALSE.

Worked cases, answers included:
INSERT INTO measurements (recordsequence, categorylabel) VALUES
  ('AAGPKIFYA [SEQ ID NO: 2]', 'FALSE'),
  ('AAAPAIFYA [SEQ ID NO: 4]', 'TRUE'),
  ('AAAAKIFYA [SEQ ID NO: 3]', 'FALSE'),
  ('AAAPKAFYA [SEQ ID NO: 5]', 'FALSE');

In: Is IC50 strictly under 100 nM for the entry AAAPKIFYA [SEQ ID NO: 1] ?
Out: TRUE
